Assay: Binding affinity to Escherichia coli MurF by HTS assay in presence of ATP
ASSAY METRIC: Kd (µM)
One number for each entry, in µM.

COc1cccc(C(=O)NC(c2ccccc2OC)c2cc(Cl)c3cccnc3c2O)c1 (stereo not drawn): 14
COc1ccc(C(NC(=O)c2ccccc2)c2ccc3cccnc3c2O)cc1OC (stereo not drawn): 14

GET /value?item= O=C(NC(c1ccc2c(c1)OCO2)c1ccc2cccnc2c1O)c1ccccc1 (stereo not drawn) &field=Kd returns 12

====

Experiment: Inhibition of Escherichia coli MurF assessed as appearance of UDP-MurNAc-pentapeptide product by HPLC
API: label(entry) gives met if the entry's IC50 is strictly smaller than 900 nM; on equality or larger values it gives not met.

These recorded examples may help you get a feel for the data.
COc1cccc(C(=O)NC(c2ccccc2OC)c2cc(Cl)c3cccnc3c2O)c1 (stereo not given): not met
O=C(NC(c1ccccc1F)c1ccc2cccnc2c1O)c1ccccc1 (stereo not given): met
COc1cccc(C(=O)NC(/C=C/c2ccccc2)c2cc(Cl)c3cccnc3c2O)c1 (stereo not given): not met
Cc1ccc(C(NC(=O)c2ccccc2)c2ccc3cccnc3c2O)cc1 (stereo not given): met
COc1ccc(C(NC(=O)c2ccccc2)c2ccc3cccnc3c2O)cc1OC (stereo not given): not met

**Query** # strict comparison: is reported IC50 < 900 nM? input = COc1ccc(C(NC(=O)c2cccc(OC)c2)c2cc(Cl)c3cccnc3c2O)cc1 (stereo not given)
**Result** met

**Query** # strict comparison: is reported IC50 < 900 nM? input = COc1cccc(C(=O)NC(c2ccc3c(c2)OCO3)c2cc(Cl)c3cccnc3c2O)c1 (stereo not given)
**Result** met

**Query** # strict comparison: is reported IC50 < 900 nM? input = O=C(Nc1ccc(F)cc1)OC(CCN1CCC(O)(c2ccc(Cl)cc2)CC1)c1ccccc1 (stereo not given)
**Result** not met

**Query** # strict comparison: is reported IC50 < 900 nM? input = COc1ccc(C(=O)NC(c2ccc(OC)c(OC)c2)c2cc(Cl)c3cccnc3c2O)cc1 (stereo not given)
**Result** not met

**Query** # strict comparison: is reported IC50 < 900 nM? input = O=C(NC(c1ccc2c(c1)OCO2)c1ccc2cccnc2c1O)c1ccccc1 (stereo not given)
**Result** met

Where these numbers come from: ChEMBL document CHEMBL1152456
